assay_text: self-splicing fitness, log relative to wild type (ln ratio); higher = more splicing; Tetrahymena group I intron in knt gene, E. coli kanamycin selection, DiMSum; sequences stand for … in CUCUCU…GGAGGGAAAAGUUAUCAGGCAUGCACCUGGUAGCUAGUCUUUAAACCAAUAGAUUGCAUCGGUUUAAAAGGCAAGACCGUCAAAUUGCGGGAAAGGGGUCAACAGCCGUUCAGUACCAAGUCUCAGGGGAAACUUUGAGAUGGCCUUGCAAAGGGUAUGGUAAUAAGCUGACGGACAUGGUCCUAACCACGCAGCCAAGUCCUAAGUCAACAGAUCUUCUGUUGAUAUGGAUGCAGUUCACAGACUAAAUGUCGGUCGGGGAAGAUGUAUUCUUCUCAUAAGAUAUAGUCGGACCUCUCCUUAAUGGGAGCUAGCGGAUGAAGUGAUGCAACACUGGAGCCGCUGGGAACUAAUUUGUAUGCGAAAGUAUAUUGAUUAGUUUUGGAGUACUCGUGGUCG;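 further: selection with 25 µg/mL kanamycin versus none on LB agar overnight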
recorded_conditions: 30 °C
Note that class boundaries on self-splicing fitness (ln) are 0 = under -2, 1 = from -2 up to -0.7, 2 = -0.7 and over

| item_sequence | label_class |
| --- | --- |
| GUAGAGCAAUAUUACGUGUA | 0 |
| ACCCAGCAAUAUUACGAACC | 0 |
| ACGCAGCAAUAUUACGUACU | 1 |
| UACUAGCAAUAUUACGGCAA | 2 |
| GCCUAGCAAUAUUACGAGAC | 1 |
| UUGCAGCAAUAUUACGCCUU | 2 |
| AUUUAGCAAUAUUACGCCAU | 1 |
| ACAAAGCAAUAUUACGUAGG | 0 |
| UUAGAGCAAUAUUACGCCUG | 2 |
| GCGAAGCAAUAUUACGACCU | 2 |
| CCAUAGCAAUAUUACGGAUA | 0 |
| ACCCAGCAAUAUUACGAUCA | 2 |
| GAAAAGCAAUAUUACGAACC | 2 |
| CUCCAGCAAUAUUACGGACC | 0 |
| GUACAGCAAUAUUACGCUCA | 1 |
| GUACAGCAAUAUUACGUUGU | 0 |

* * *

assay_text: self-splicing fitness, log relative to wild type (ln ratio); higher = more splicing; Tetrahymena group I intron in knt gene, E. coli kanamycin selection, DiMSum; sequences stand for … in CUCUCU…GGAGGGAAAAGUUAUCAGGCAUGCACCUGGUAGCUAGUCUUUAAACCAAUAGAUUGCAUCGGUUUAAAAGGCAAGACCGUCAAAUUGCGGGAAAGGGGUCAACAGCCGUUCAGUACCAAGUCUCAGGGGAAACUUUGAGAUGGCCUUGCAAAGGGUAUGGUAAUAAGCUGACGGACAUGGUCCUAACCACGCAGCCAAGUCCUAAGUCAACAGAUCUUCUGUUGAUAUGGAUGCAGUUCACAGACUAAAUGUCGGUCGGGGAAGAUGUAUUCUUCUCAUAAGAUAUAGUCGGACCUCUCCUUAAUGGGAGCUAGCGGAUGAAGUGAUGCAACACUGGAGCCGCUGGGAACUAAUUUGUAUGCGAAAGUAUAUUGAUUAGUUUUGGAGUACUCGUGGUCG
recorded_conditions: 30 °C
Classification field: enter rule met for self-splicing fitness (ln) values not below -2, rule not met for values below it.

| item_sequence | label_class |
| --- | --- |
| AGGCAGCAAUAUUACGAUAC | rule not met |
| UUAAAGCAAUAUUACGAUCA | rule met |
| ACUAAGCAAUAUUACGGUCG | rule not met |
| UUGAAGCAAUAUUACGCGCA | rule met |
| CAAGAGCAAUAUUACGAGAG | rule not met |
| GUUGAGCAAUAUUACGGCUG | rule met |
| UAGUAGCAAUAUUACGUUAC | rule not met |
| GAUAAGCAAUAUUACGAACU | rule met |
| ACCCAGCAAUAUUACGGUCC | rule met |
| CAAUAGCAAUAUUACGGCUC | rule met |
| AGAUAGCAAUAUUACGAUGU | rule met |
| GUAUAGCAAUAUUACGACGG | rule not met |
| CCUUAGCAAUAUUACGCGUC | rule not met |
| UAUUAGCAAUAUUACGAUUC | rule met |
| CUCUAGCAAUAUUACGACGA | rule not met |
| AGCGAGCAAUAUUACGCAGG | rule not met |
| GAAUAGCAAUAUUACGUUCG | rule met |
| UUGCAGCAAUAUUACGCCCA | rule met |
| AAUCAGCAAUAUUACGAGUU | rule met |
| ACCCAGCAAUAUUACGACGU | rule met |
| UAACAGCAAUAUUACGGUAA | rule not met |
| GGGAAGCAAUAUUACGCGAC | rule not met |
| UUGUAGCAAUAUUACGCUCA | rule met |
| CAAUAGCAAUAUUACGUGAU | rule not met |
| UGUUAGCAAUAUUACGCAAA | rule met |
| UGUCAGCAAUAUUACGAAUU | rule met |
| AAAAAGCAAUAUUACGUGAA | rule met |
| CAAAAGCAAUAUUACGUAUA | rule not met |
| UUCAAGCAAUAUUACGUCCA | rule met |
| UAGAAGCAAUAUUACGGUUA | rule met |
| UGAAAGCAAUAUUACGUCCC | rule not met |
| CAUUAGCAAUAUUACGGGUC | rule not met |
| GAAGAGCAAUAUUACGGAUU | rule not met |
| CAUUAGCAAUAUUACGCGUA | rule met |
| CGUAAGCAAUAUUACGUCUA | rule not met |
| GUGAAGCAAUAUUACGGGAC | rule met |
| GAACAGCAAUAUUACGGGUU | rule not met |
| UCCGAGCAAUAUUACGCUUG | rule not met |
| GAGCAGCAAUAUUACGCCGG | rule not met |
| UAUCAGCAAUAUUACGCCAA | rule met |
| GCACAGCAAUAUUACGAACG | rule met |
| ACUGAGCAAUAUUACGUCAA | rule not met |
| ACCUAGCAAUAUUACGCGCU | rule met |
| CCGUAGCAAUAUUACGCGAG | rule not met |
| AGCCAGCAAUAUUACGAGAG | rule not met |
| AGCUAGCAAUAUUACGUCCC | rule met |
| GCACAGCAAUAUUACGAAUC | rule met |
| GAAUAGCAAUAUUACGCUAG | rule not met |
| ACAGAGCAAUAUUACGGAAU | rule not met |
| AUAUAGCAAUAUUACGCGAU | rule not met |
| GACGAGCAAUAUUACGGUAG | rule not met |
| UAGUAGCAAUAUUACGAGCA | rule met |
| UGUUAGCAAUAUUACGACCG | rule met |
| UGAUAGCAAUAUUACGACGG | rule met |
| CAUCAGCAAUAUUACGGUAU | rule not met |
| CGCAAGCAAUAUUACGGCGG | rule met |
| UAUUAGCAAUAUUACGUAAC | rule met |
| UAGCAGCAAUAUUACGGAAU | rule not met |
| CAGGAGCAAUAUUACGAGGU | rule not met |
| AAGUAGCAAUAUUACGAAUA | rule not met |
| UUCCAGCAAUAUUACGUGGG | rule not met |
| CCACAGCAAUAUUACGUGAU | rule not met |
| GCGCAGCAAUAUUACGUUAU | rule met |
| CGUUAGCAAUAUUACGGUAA | rule met |
| GUUAAGCAAUAUUACGAGGC | rule not met |
| UGGUAGCAAUAUUACGUACG | rule met |
| CCGAAGCAAUAUUACGAGAA | rule not met |
